Values were extracted from patent US8541590B2.

# Test name: Comparative bioavailability of bortezomib and boronic ester of Formula XI in rat, Example 10 (i.v.; p.o. in saline)
# Type: in vivo, male Sprague Dawley rats
# Condition description: male, Sprague Dawley, iv, bortezomib in plasma, 0.8 mg/kg, mean ± SEM, n = 3
Measured metric: AUC(0-inf) (ng·h/mL)
Give just the number in ng·h/mL; leave the unit off.

Fill in the blank: the reported AUC(0-inf) of CC(C)C[C@H](NC(=O)[C@H](Cc1ccccc1)NC(=O)c1cnccn1)B(O)O [bortezomib] is ____.
472

---

# Test name: Comparative bioavailability of bortezomib and boronic ester of Formula XI in rat, Example 10 (i.v.; p.o. in saline)
# Assay type: in vivo, male Sprague Dawley rats
# Condition description: male, Sprague Dawley, iv, bortezomib in plasma, 0.8 mg/kg, mean ± SEM, n = 3
Measured metric: clearance
Could you write the number and then its unit?

Fill in the blank: the reported clearance of `CC(C)C[C@H](NC(=O)[C@H](Cc1ccccc1)NC(=O)c1cnccn1)B(O)O` is ____.
34 mL/min/kg
